target: T1, human LILRB1 (human, UniProt Q8NHL6 24-650); test: flow cytometry, LILRB1 CHOs
T1 construct: Over-expressed on CHO-s cells; also called hLILRB1
T1 sequence (Q8NHL6 24-650 limits assumed): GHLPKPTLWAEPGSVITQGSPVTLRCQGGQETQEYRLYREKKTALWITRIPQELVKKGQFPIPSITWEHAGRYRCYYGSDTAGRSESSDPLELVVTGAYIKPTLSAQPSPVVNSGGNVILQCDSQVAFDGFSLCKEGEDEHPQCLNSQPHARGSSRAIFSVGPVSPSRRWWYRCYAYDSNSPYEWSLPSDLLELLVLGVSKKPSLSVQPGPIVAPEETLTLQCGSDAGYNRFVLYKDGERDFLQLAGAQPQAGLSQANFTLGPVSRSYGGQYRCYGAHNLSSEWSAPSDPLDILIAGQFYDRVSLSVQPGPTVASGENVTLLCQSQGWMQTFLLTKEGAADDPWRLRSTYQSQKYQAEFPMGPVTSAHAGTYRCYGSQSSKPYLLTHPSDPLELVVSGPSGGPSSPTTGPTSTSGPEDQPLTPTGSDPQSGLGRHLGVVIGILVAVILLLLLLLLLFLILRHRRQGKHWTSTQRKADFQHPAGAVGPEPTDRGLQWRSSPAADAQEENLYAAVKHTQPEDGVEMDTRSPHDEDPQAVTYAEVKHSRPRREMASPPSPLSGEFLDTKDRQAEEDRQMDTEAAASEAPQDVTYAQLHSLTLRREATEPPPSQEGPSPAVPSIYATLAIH
Measured binding (fold over iso), listed per entry.
The reply should contain only the number, in fold over iso.

Completed entries (count: 4):
Enquiry: Which value of binding (fold over iso) has been reported for J-11 (antibody, human IgG4 S228P, kappa, V domains shown, Human IgG4 chimera of murine origin; also called J-11.h) VH: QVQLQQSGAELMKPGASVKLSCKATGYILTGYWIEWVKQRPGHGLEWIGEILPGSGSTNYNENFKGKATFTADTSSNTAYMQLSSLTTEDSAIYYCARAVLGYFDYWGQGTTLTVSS VL: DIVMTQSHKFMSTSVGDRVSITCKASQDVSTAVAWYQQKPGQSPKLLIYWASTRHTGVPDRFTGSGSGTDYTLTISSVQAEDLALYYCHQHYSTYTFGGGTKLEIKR in the records?
Return: 1.07

Enquiry: Continue with J-19 (antibody, human IgG4 S228P, kappa, V domains shown, Human IgG4 chimera from a rat immunization; also called J-19.h) VH: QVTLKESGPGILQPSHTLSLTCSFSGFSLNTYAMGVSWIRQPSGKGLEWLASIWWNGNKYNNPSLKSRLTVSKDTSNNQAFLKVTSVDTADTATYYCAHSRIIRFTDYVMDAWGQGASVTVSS VL: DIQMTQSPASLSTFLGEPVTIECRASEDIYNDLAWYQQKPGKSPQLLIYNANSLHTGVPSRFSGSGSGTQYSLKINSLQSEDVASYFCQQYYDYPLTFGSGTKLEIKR
Return: 1.05

Enquiry: Continue with J-04 (antibody, human IgG4 S228P, kappa, V domains shown, Human IgG4 chimera of murine origin) VH: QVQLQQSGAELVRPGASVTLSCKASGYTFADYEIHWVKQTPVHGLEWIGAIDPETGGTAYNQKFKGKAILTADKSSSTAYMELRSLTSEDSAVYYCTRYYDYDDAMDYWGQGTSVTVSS VL: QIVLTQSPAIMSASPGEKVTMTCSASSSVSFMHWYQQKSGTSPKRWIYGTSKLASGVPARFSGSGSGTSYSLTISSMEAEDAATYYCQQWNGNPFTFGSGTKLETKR
Return: 0.95

Enquiry: Continue with J-03 (antibody, human IgG4 S228P, kappa, V domains shown, Human IgG4 chimera of murine origin) VH: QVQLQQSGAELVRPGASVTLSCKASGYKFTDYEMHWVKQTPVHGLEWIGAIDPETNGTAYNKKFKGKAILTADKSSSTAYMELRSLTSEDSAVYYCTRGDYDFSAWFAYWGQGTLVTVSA VL: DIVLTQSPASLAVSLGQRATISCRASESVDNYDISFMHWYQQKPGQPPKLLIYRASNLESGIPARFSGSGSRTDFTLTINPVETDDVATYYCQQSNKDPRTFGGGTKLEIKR
Return: 0.94

# ---- query binder ----
Enquiry: Which value of binding (fold over iso) has been reported for J-17 (antibody, human IgG4 S228P, kappa, V domains shown, Human IgG4 chimera of murine origin; also called J-17.h) VH: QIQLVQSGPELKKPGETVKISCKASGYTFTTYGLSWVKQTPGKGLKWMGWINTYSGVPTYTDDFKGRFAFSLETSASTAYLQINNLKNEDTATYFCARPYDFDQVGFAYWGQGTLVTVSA VL: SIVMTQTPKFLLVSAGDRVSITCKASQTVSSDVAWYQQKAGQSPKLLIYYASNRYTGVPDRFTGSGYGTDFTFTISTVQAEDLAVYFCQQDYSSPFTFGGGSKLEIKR in the records?
Return: 1.05
